Taken from ChEMBL document CHEMBL1921787.

For each record, write down the corresponding Activity.
- Test system: Rattus norvegicus
- methodDescription: Antihepatotoxic activity against CCl4-induced liver damage in rat assessed as decrease in serum SGPT level at 10 mg/kg, po by calorimetric assay (reference value: 85.27 +/- 2.05 IU/L)
- Format: functional
One number for each entry, in IU/L.

Illustrative cases are given below, each with its answer.
>>> df
                                   compound        assaytarget  measurename  recordedmeasurement
0  Oc1ccc(C2=NNC(c3ccc4c(c3)OCCO4)C2)c(O)c1 (stereo not given)  Rattus norvegicus     Activity                62.09
1  Clc1ccc(C2=NNC(c3ccc4c(c3)OCCO4)C2)cc1 (stereo not given)  Rattus norvegicus     Activity                65.81
2  c1ccc(C2=NNC(c3ccc4c(c3)OCCO4)C2)cc1 (stereo not given)  Rattus norvegicus     Activity                   65
3  Cc1cccc(C2=NNC(c3ccc4c(c3)OCCO4)C2)c1 (stereo not given)  Rattus norvegicus     Activity                64.13

Problem: Provide measured Activity value, entry: COc1ccc(C2=NNC(c3ccc4c(c3)OCCO4)C2)cc1OC (stereo not given)
Result: 64.95
